# procedure-text: Mouse pharmacokinetics, oral or intravenous cassette dosing
# Assay type: in vivo, mice (C57BL/6J)
# measurement-conditions: C57BL/6J, whole blood, 3 female mice, 5 mg/kg oral cassette, sampling 0.25-8 h
reported-property: Cmax
Don't forget the unit after the number, please.

{"chemical-structure": "[2H]C([2H])(OC([2H])(C([2H])([2H])[2H])C([2H])([2H])[2H])c1c(-c2c(F)cccc2Cl)noc1-c1cnn(-c2cccc(Cl)c2)c1C(F)(F)F", "Cmax": "112 ng/mL"}

Now consider the entry below.
stdin: Looking for the measured Cmax of `[2H]C([2H])(OC(C)C)c1c(-c2c(F)cccc2Cl)noc1-c1cnn(-c2cccc(Cl)c2)c1C(F)(F)F` , can you help?
stdout: 922 ng/mL
